subject-of-test: T1, IL-18 receptor (IL-18Rα / IL-18Rβ heterodimer) on HEK-Blue IL-18 reporter cells (UniProt Q13478 19-541; O95256 20-599, limits assumed)
T1 sequence (looked up) 1: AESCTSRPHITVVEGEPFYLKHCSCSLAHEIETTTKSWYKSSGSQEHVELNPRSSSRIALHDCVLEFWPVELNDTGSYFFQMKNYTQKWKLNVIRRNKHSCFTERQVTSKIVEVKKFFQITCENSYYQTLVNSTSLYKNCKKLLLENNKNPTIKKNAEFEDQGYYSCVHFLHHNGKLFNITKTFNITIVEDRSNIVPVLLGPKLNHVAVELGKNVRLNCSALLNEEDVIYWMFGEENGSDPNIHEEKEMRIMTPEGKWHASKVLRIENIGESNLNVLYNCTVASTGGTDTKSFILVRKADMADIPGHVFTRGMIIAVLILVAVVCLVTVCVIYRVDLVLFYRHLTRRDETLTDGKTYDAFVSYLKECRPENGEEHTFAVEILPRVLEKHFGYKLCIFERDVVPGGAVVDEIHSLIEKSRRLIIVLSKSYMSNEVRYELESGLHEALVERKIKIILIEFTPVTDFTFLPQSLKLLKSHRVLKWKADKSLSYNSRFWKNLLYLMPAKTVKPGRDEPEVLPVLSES
T1 sequence (looked up) 2: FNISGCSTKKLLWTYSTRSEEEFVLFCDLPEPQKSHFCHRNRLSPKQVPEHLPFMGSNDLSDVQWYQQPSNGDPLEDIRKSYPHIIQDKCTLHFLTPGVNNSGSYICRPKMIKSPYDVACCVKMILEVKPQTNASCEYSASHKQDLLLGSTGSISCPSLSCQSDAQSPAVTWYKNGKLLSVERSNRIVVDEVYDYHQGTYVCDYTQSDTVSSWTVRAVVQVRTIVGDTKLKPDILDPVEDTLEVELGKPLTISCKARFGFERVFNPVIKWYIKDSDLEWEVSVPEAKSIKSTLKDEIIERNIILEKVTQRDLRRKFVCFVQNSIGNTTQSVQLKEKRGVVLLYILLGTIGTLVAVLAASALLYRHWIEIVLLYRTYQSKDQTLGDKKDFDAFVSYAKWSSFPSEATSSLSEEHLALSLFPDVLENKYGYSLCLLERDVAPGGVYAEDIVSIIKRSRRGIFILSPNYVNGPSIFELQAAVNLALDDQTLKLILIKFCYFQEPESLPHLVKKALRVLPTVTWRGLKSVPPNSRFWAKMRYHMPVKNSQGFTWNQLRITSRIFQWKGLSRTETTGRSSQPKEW
test-description: cell-based or functional assay
I'd appreciate it if you could supply EC50-#2 (M), HEK-Blue reporter values for the items below.
I'd appreciate it if you included the unit after the number.

Problem: Entry under review: SEQ ID NO: 19 (stabilized human DR-IL-18; SEQ ID NO: 89 plus C38S/C68D) (ligand) YFGKLESKLSVIRNLNDQVLFIDQGNRPLFEDMTDSDSRDNAPRTIFIISKYSDSLARGLAVTISVKDEKISTLSCENKIISFKEMNPPDNIKDTKSDIIFFQRDVPGHSRKMQFESSSYEGYFLACEKERDLFKLILKKEDELGDRSIMFTVQNED . Reported EC50-#2 (M), HEK-Blue reporter?
Solution: 7.9e-11 M

Problem: Entry under review: SEQ ID NO: 18 (SEQ ID NO: 89 plus C38S/C68V) (ligand) YFGKLESKLSVIRNLNDQVLFIDQGNRPLFEDMTDSDSRDNAPRTIFIISKYSDSLARGLAVTISVKVEKISTLSCENKIISFKEMNPPDNIKDTKSDIIFFQRDVPGHSRKMQFESSSYEGYFLACEKERDLFKLILKKEDELGDRSIMFTVQNED . Reported EC50-#2 (M), HEK-Blue reporter?
Solution: 4.48e-11 M
